Exercise: state measured melting point for each of the compounds provided.

Solved entries (count: 2):
compound	melting point
CCC(CC)Nc1ncc2cc(-c3cc(C(=O)NC4CC4)ccc3C)c(O)cc2n1 [Compound 365]	210 °C
CC(C)Nc1ncc2cc(-c3cccc(NC(=O)c4cccc(N5CCCCC5)c4)c3)c(O)cc2n1 [Compound 386]	230 °C

Give me melting point for each of these compounds, listed below.
1. CC(C)Nc1ncc2cc(-c3cccc(NC(=O)c4ccnc(N5CCCCC5)c4)c3)c(O)cc2n1 [Compound 349]
2. CC(C)Nc1ncc2cc(-c3cccc(C(=O)NC4CC4)c3)c(O)cc2n1 [Compound 334]
3. CC(C)Nc1ncc2cc(-c3cccc(NC(=O)c4ccnc(N5CCCC5)c4)c3)c(O)cc2n1 [Compound 336]
4. CS(=O)(=O)N1CCC(Nc2ncc3cc(-c4cccc(O)c4)c(O)cc3n2)CC1 [Compound 247]

Response line:
226 to 227 °C
250 °C (dec.)
248 to 249 °C
285 to 290 °C

Give me melting point for each of these compounds, listed below.
1. CC(C)Nc1ncc2cc(-c3cccc(NC(=O)c4cccc(N5CCCC5)c4)c3)c(O)cc2n1 [Compound 376]
2. Cc1ccccc1-c1cc2cnc(Nc3ccccc3)nc2cc1O [Compound 178]

Response line:
235 to 236 °C
234 to 236 °C

====

# measured-on: Activated human p38α (Homo sapiens, UniProt Q16539)
# Construct: purchased Upstate Biotechnology Inc. 14-251
# Sequence (Q16539 whole entry): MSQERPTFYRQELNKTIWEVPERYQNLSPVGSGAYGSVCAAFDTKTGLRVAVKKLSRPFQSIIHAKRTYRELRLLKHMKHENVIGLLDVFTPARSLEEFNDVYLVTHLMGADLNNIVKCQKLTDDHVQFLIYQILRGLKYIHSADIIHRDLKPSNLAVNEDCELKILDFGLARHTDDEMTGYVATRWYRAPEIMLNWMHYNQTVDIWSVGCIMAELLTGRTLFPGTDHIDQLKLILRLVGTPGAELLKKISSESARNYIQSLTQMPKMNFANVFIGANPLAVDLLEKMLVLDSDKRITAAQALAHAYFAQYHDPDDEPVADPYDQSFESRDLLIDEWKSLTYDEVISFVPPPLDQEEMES
# test-details: p38MAP kinase inhibition test
# Type: biochemical
# condition-set: at a concentration of 1 μmol/L; substrate myelin basic protein, ATP 20 μmol/L, [γ-32P]ATP; read-out: enzyme inhibitory activity
Exercise: state measured inhibition at 1 µM for each of the molecules provided.

Solved entries (count: 3):
molecule	inhibition at 1 µM
COc1c(-c2ccccc2Cl)cc2cnc(NC(C)C)nc2c1C(C)=O [Compound 77]	≥ 50%
COc1cc2nc(NC(C)C)ncc2cc1-c1cc(C(=O)NC2CC2)ccc1C [Compound 236]	≥ 50%
Cc1cccc(C(=O)c2cc3cnc(NC(C)C)nc3cc2O)c1 [Compound 118]	≥ 50%

Give me inhibition at 1 µM for each of these molecules, listed below.
1. Cc1ccc(C(=O)NC2CC2)cc1-c1ccc2nc(NC(C)C)ncc2c1 [Compound 268]
2. CCOC(=O)COc1cc2nc(NC(C)C)ncc2cc1-c1ccccc1Cl [Compound 32]
3. CONC(=O)c1ccc(C)c(-c2cc3cnc(NC(C)C)nc3cc2O)c1 [Compound 353]
4. Cc1ccc(C(=O)Nc2cccc(N(C)C)c2)cc1-c1cc2cnc(NC(C)C)nc2cc1O [Compound 324]
5. CC(C)Nc1ncc2cc(-c3ccccc3Cl)c(OCC(N)=O)cc2n1 [Compound 35]
6. Cc1ccc(NC(=O)c2ccncc2)cc1-c1ccc2nc(NC(C)C)ncc2c1 [Compound 259]
7. CC(C)Nc1ncc2cc(-c3cccc(NC(=O)C4(C)CC4)c3)c(O)cc2n1 [Compound 299]
8. COc1cc2nc(NC3CCOCC3)ncc2cc1-c1ccccc1Cl [Compound 11]

Response line:
1: ≥ 50%; 2: ≥ 50%; 3: ≥ 50%; 4: ≥ 50%; 5: ≥ 50%; 6: ≥ 50%; 7: ≥ 50%; 8: ≥ 50%

Give me inhibition at 1 µM for each of these molecules, listed below.
1. O=C(c1ccccc1)c1cc2cnc(Nc3c(Cl)cccc3Cl)nc2cc1O [Compound 141]
2. COc1cc2nc(NC3CCN(S(C)(=O)=O)CC3)ncc2cc1-c1cccc(NC(C)=O)c1 [Compound 238]
3. CCC(CC)Nc1ncc2cc(-c3cc(C(=O)NC4CC4)ccc3C)c(O)cc2n1 [Compound 365]
4. COc1cc2nc(NC(C)C)ncc2cc1-c1cccc(NC(=O)Nc2ccccc2)c1 [Compound 210]
5. CC[C@H](C)Nc1ncc2cc(-c3ccccc3Cl)c(O)cc2n1 [Compound 163]
6. COc1cc2nc(NC(C)C)ncc2cc1-c1ccccc1C=NO [Compound 58]
7. Cc1ccc(NC(=O)c2ccnc(N3CCOCC3)c2)cc1-c1ccc2nc(NC(C)C)ncc2c1 [Compound 256]

Response line:
["≥ 50%", "≥ 50%", "≥ 50%", "≥ 50%", "≥ 50%", "≥ 50%", "≥ 50%"]

====

reported-endpoint: melting point

compound-string	melting point
CC(C)Nc1ncc2cc(-c3cccc(NC(=O)c4ccnc(-c5ccc(F)cc5)c4)c3)c(O)cc2n1	243 to 245 °C
CONC(=O)c1ccc(C)c(-c2cc3cnc(NC(C)C)nc3cc2O)c1	158 to 161 °C
CC[C@H](C)Nc1ncc2cc(-c3ccccc3C)c(O)cc2n1	165 °C
CC(C)Nc1ncc2cc(-c3cccc(C(=O)Nc4cccc(N5CCCC5)c4)c3)c(O)cc2n1	251 to 253 °C
Cc1ccccc1-c1cc2cnc(Nc3c(C)cccc3C)nc2cc1O	220 to 222 °C
Cc1ccc(NC(=O)c2ccnc(N3CCOCC3)c2)cc1-c1cc2cnc(NC(C)C)nc2cc1O	169 to 172 °C
Cc1ccc(C(=O)NC2CC2)cc1-c1cc2cnc(Nc3c(Cl)cccc3Cl)nc2cc1O	190 to 193 °C
CC(C)Nc1ncc2cc(-c3cccc(NC(=O)c4ccnc(N5CCOCC5)c4)c3)c(O)cc2n1	258 °C
Cc1ccc(C(=O)Nc2cccc(N(C)C)c2)cc1-c1cc2cnc(NC(C)C)nc2cc1O	217 to 218 °C
CC(C)Nc1ncc2cc(-c3cccc(NC(=O)c4cc(F)cc(N5CCOCC5)c4)c3)c(O)cc2n1	217 to 219 °C

Give me melting point for each of these compounds, listed below.
1. COc1ccc(C(F)(F)F)cc1NC(=O)c1ccc(C)c(-c2cc3cnc(NC(C)C)nc3cc2O)c1
2. Cc1cccc(C)c1Nc1ncc2cc(-c3cccc(NC(=O)c4ccnc(N5CCOCC5)c4)c3)c(O)cc2n1

Response line:
["280 to 281 °C", "185 °C"]

Give me melting point for each of these compounds, listed below.
1. CCS(=O)(=O)N1CCC(Nc2ncc3cc(-c4ccccc4Cl)c(O)cc3n2)CC1
2. CC(C)Nc1ncc2cc(-c3cccc(C(=O)Nc4cccc(N5CCOCC5)c4)c3)c(O)cc2n1
3. CC(C)Nc1ncc2cc(-c3cccc(NC(=O)c4ccnc(N5CCN(C)CC5)c4)c3)c(O)cc2n1

Response line:
1. 251 to 253 °C
2. 248 to 249 °C
3. 178 °C

Prompt line: Given CC(C)Nc1ncc2cc(-c3cccc(C(=O)Nc4cccc(N(C)C)c4)c3)c(O)cc2n1 , state its recorded melting point.
Response line: 236 °C

====

Exercise: state measured inhibition at 1 µM for each of the molecules provided.
# measured-on: Activated human p38α (Homo sapiens)
# Construct: purchased Upstate Biotechnology Inc. 14-251
# test-details: p38MAP kinase inhibition test
# Assay type: biochemical
# condition-set: at a concentration of 1 μmol/L; substrate myelin basic protein, ATP 20 μmol/L, [γ-32P]ATP; read-out: enzyme inhibitory activity

Solved entries (count: 5):
compound-string	inhibition at 1 µM
NC(=O)N1CCC(Nc2ncc3cc(-c4ccccc4Cl)c(O)cc3n2)CC1	≥ 50%
Cc1ccc(NC(=O)c2ccc[n+]([O-])c2)cc1-c1ccc2nc(NC(C)C)ncc2c1	≥ 50%
COc1cc2nc(NC(C)C)ncc2cc1-c1ccccc1C	≥ 50%
Cc1ccc(NC(=O)c2ccc[nH]2)cc1-c1ccc2nc(NC(C)C)ncc2c1	≥ 50%
COc1cc2nc(NC(C)C)ncc2cc1-c1cc(N)ccc1CO	≥ 50%

Give me inhibition at 1 µM for each of these molecules, listed below.
1. Cc1ccccc1-c1cc2cnc(NC(C)C)nc2cc1O
2. CC(C)Nc1ncc2cc(-c3ccccc3Cl)c3oc(C(C)(C)O)cc3c2n1
3. COc1c(-c2ccccc2Cl)cc2cnc(NC(C)C)nc2c1-c1ccccn1

Response line:
["≥ 50%", "≥ 50%", "≥ 50%"]

Prompt line: Any idea what inhibition at 1 µM came out for COc1cc2nc(NC(C)C)ncc2cc1-c1cc(NC(=O)c2ccc[nH]2)ccc1O on Activated human p38α (Homo sapiens)?
Response line: ≥ 50%

====

Exercise: state measured inhibition at 1 µM for each of the compounds provided.
# measured-on: Activated human p38α (Homo sapiens)
# Construct: purchased Upstate Biotechnology Inc. 14-251
# test-details: p38MAP kinase inhibition test
# Assay type: biochemical
# condition-set: at a concentration of 1 μmol/L; substrate myelin basic protein, ATP 20 μmol/L, [γ-32P]ATP; read-out: enzyme inhibitory activity

Solved entries (count: 3):
compound-string	inhibition at 1 µM
CCC(=O)Nc1cccc(-c2cc3cnc(NC(C)C)nc3cc2O)c1	≥ 50%
CCS(=O)(=O)N1CCC(Nc2ncc3cc(-c4ccccc4Cl)c(O)cc3n2)CC1	≥ 50%
COc1cc2nc(NC3CCN(S(C)(=O)=O)CC3)ncc2cc1-c1cccc(O)c1	≥ 50%

Give me inhibition at 1 µM for each of these compounds, listed below.
1. CC(=O)Nc1cccc(-c2cc3cnc(NC(C)C)nc3cc2C)c1
2. Cc1ccc(NC(=O)C2CC2)cc1-c1ccc2nc(NC(C)C)ncc2c1

Response line:
1. ≥ 50%
2. ≥ 50%

Give me inhibition at 1 µM for each of these compounds, listed below.
1. COc1cc2nc(NC(C)C)ncc2cc1-c1cccc(NC(=O)c2cccnc2)c1
2. CC[C@H](C)Nc1ncc2cc(-c3cccc(NC(=O)c4ccnc(N5CCOCC5)c4)c3)c(O)cc2n1
3. CC(C)Nc1ncc2cc(C(=O)c3ccc(F)c(Cl)c3)c(O)cc2n1

Response line:
≥ 50%
≥ 50%
≥ 50%
